Species on record: Rattus norvegicus
Experiment: DrugMatrix - Regimen: Daily Repeat
Format: toxicity, organism-based, Sprague-Dawley
Set-up: regimen Daily Repeat, gender Male, age 6-8 weeks
Conditions: in vivo, po, 0 mg/kg, 120 h, tissue Blood, route oral GAVAGE, dose level Control, time 5 day, […]
Entries and their HEMATOCRIT
Only the number, expressed in %, is required.

As a guide, the following entries are already answered.
Oc1ncnc2[nH]ncc12 [ALLOPURINOL] ... 34.05
COc1ccccc1OCCNCC(O)COc1cccc2[nH]c3ccccc3c12 (stereo not drawn) [CARVEDILOL] ... 36.22
COC(=O)Nc1nc2ccc(C(=O)c3ccccc3)cc2[nH]1 [MEBENDAZOLE] ... 36.22

Q) I would be grateful if you could share the reported HEMATOCRIT for O=C(O)COC(=O)Cc1ccccc1Nc1c(Cl)cccc1Cl [ACECLOFENAC] .
A) 36.22

Q) // next record CC(C)(c1ccc(O)cc1)c1ccc(O)cc1 [BISPHENOL A]
A) 33.82

Q) // next record O=C(Nc1ccc(Cl)c(Cl)c1)c1cc(Cl)cc(Cl)c1O [3,3',4',5-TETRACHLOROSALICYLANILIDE]
A) 36.97

Q) // next record c1ccc2c(c1)Nc1ccccc1S2 [PHENOTHIAZINE]
A) 34.67

Q) // next record CCC(C)(C)C(=O)O[C@H]1C[C@@H](C)C=C2C=C[C@H](C)[C@H](CC[C@@H]3C[C@@H](O)CC(=O)O3)[C@H]21 [SIMVASTATIN]
A) 33.9

Q) // next record Cc1cccc(C)c1NC(=O)C(C)N (stereo not drawn) [TOCAINIDE]
A) 34.08

Q) // next record CC#C[C@]1(O)CC[C@H]2[C@@H]3CCC4=CC(=O)CCC4=C3[C@@H](c3ccc(N(C)C)cc3)C[C@@]21C [MIFEPRISTONE]
A) 33.9

Q) // next record `CO[C@H]1O[C@@H]2O[C@@]3(C)CC[C@H]4[C@H](C)CC[C@@H]([C@H]1C)[C@@]24OO3`
A) 36.13

Q) // next record CCOC(=O)C1=C(C)NC(C)=C(C(=O)OCC)C1c1ccccc1/C=C/C(=O)OC(C)(C)C [LACIDIPINE]
A) 34.25

Q) // next record CS(=O)(=O)c1ccc(C2=C(c3ccccc3)C(=O)OC2)cc1 [ROFECOXIB]
A) 34.67

====

Species on record: Rattus norvegicus
Assay: DrugMatrix - Regimen: Daily Repeat
Assay type: toxicity, organism-based, Sprague-Dawley
Parameters: regimen Daily Repeat, gender Male, age 6-8 weeks
Details: in vivo, po, 0 mg/kg, 120 h, tissue Plasma, route oral GAVAGE, dose level Control, time 5 day, […]
Measurement Name: BLOOD UREA NITROGEN (mg/dL)
Only the number, expressed in mg/dL, is required.

As a guide, the following entries are already answered.
O=C(Nc1ccc(Cl)c(Cl)c1)c1cc(Cl)cc(Cl)c1O [3,3',4',5-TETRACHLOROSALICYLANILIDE] ... 16.83
CC#C[C@]1(O)CC[C@H]2[C@@H]3CCC4=CC(=O)CCC4=C3[C@@H](c3ccc(N(C)C)cc3)C[C@@]21C [MIFEPRISTONE] ... 14.83
CC(C)(c1ccc(O)cc1)c1ccc(O)cc1 [BISPHENOL A] ... 14.75

Here is the next item to consider.
Q) I would be grateful if you could share the reported BLOOD UREA NITROGEN for `CO[C@H]1O[C@@H]2O[C@@]3(C)CC[C@H]4[C@H](C)CC[C@@H]([C@H]1C)[C@@]24OO3` .
A) 15.67

====

Species: Rattus norvegicus
Test: DrugMatrix - Regimen: Daily Repeat
Assay type: toxicity, organism-based, Sprague-Dawley
Design: regimen Daily Repeat, gender Male, age 6-8 weeks
Details: in vivo, iv, 0 mg/kg, 72 h, tissue Plasma, dose level Control, time 3 day, vehicle 100 % SALINE
Entries and their CHOLESTEROL
Only the number, expressed in mg/dL, is required.

As a guide, the following entries are already answered.
CO[C@@]12[C@H](COC(N)=O)C3=C(C(=O)C(C)=C(N)C3=O)N1C[C@@H]1N[C@@H]12 ... 74.67
COC(=O)C[C@](O)(CCC(C)(C)O)C(=O)O[C@@H]1C(OC)=C[C@]23CCCN2CCc2cc4c(cc2[C@H]13)OCO4 ... 66.67
CC(=O)[C@]1(O)Cc2c(O)c3c(c(O)c2[C@@H](O[C@H]2C[C@H](N)[C@H](O)[C@H](C)O2)C1)C(=O)c1ccccc1C3=O ... 67.33

Q) I would be grateful if you could share the reported CHOLESTEROL for `Cc1c(N)nc([C@H](CC(N)=O)NC[C@H](N)C(N)=O)nc1C(=O)N[C@H](C(=O)N[C@H](C)[C@@H](O)[C@H](C)C(=O)N[C@H](C(=O)NCCc1nc(-c2nc(C(=O)NCCC[S+](C)C)cs2)cs1)[C@@H](C)O)[C@@H](O[C@@H]1O[C@@H](CO)[C@@H](O)[C@H](O)[C@@H]1O[C@H]1O[C@H](CO)[C@@H](O)[C@H](OC(N)=O)[C@@H]1O)c1c[nH]cn1.[Br-]` .
A) 63.5

====

Species on record: Rattus norvegicus
Test: DrugMatrix - Regimen: Daily Repeat
Assay type: toxicity, organism-based, Sprague-Dawley
Set-up: regimen Daily Repeat, gender Male, age 6-8 weeks
Settings: in vivo, po, 0 mg/kg, 72 h, tissue Plasma, route oral GAVAGE, dose level Control, time 3 day, vehicle 100 % SALINE
Entries and their PHOSPHORUS
Only the number, expressed in mg/dL, is required.

O=[As][O-].[Na+] [SODIUM ARSENITE] ... 10.9
Cc1ccnc2c1NC(=O)c1cccnc1N2C1CC1 ... 12.8
CCO ... 10.9

Q) I would be grateful if you could share the reported PHOSPHORUS for `CCN(CC)N=O` .
A) 11.32

Q) // next record CC(CN1c2ccccc2Sc2ccccc21)N(C)C (stereo not given)
A) 12.7

====

Species on record: Rattus norvegicus
Test: DrugMatrix - Regimen: Daily Repeat
Assay type: toxicity, organism-based, Sprague-Dawley
Set-up: regimen Daily Repeat, gender Male, age 6-8 weeks
Details: in vivo, po, 0 mg/kg, 72 h, tissue Plasma, route oral GAVAGE, dose level Control, time 3 day, […]
Measurement Name: CHLORIDE

CCC(C)(C)C(=O)O[C@H]1C[C@@H](C)C=C2C=C[C@H](C)[C@H](CC[C@@H]3C[C@@H](O)CC(=O)O3)[C@H]21 [SIMVASTATIN] ... 100.5 MEQ/L
COC(=O)Nc1nc2ccc(C(=O)c3ccccc3)cc2[nH]1 [MEBENDAZOLE] ... 98.33 MEQ/L
Oc1ncnc2[nH]ncc12 [ALLOPURINOL] ... 100 MEQ/L
CC(C)(c1ccc(O)cc1)c1ccc(O)cc1 [BISPHENOL A] ... 98.33 MEQ/L
c1ccc2c(c1)Nc1ccccc1S2 [PHENOTHIAZINE] ... 99.17 MEQ/L

Q) I would be grateful if you could share the reported CHLORIDE for CCOC(=O)C1=C(C)NC(C)=C(C(=O)OCC)C1c1ccccc1/C=C/C(=O)OC(C)(C)C [LACIDIPINE] .
A) 95.83 MEQ/L

Q) // next record CC#C[C@]1(O)CC[C@H]2[C@@H]3CCC4=CC(=O)CCC4=C3[C@@H](c3ccc(N(C)C)cc3)C[C@@]21C [MIFEPRISTONE]
A) 100.5 MEQ/L

Q) // next record Cc1cccc(C)c1NC(=O)C(C)N (stereo not drawn) [TOCAINIDE]
A) 97.67 MEQ/L

====

Species: Rattus norvegicus
Experiment: DrugMatrix - Regimen: Daily Repeat
Format: toxicity, organism-based, Sprague-Dawley
Parameters: regimen Daily Repeat, gender Male, age 6-8 weeks
Conditions: in vivo, po, 0 mg/kg, 120 h, tissue Blood, route oral GAVAGE, dose level Control, time 5 day, vehicle .5 % CMC
Measurement Name: MONOCYTE (%)
Only the number, expressed in %, is required.

CC(C)Cc1ccc([C@H](C)C(=O)O)cc1 ... 2.37
CN(C)CCOC(c1ccccc1)c1ccccc1.Cn1c(=O)c2[nH]c(Cl)nc2n(C)c1=O [DIMENHYDRINATE] ... 1.17
COc1ccc(Cl)cc1C(=O)NCCc1ccc(S(=O)(=O)NC(=O)NC2CCCCC2)cc1 [GLYBURIDE] ... 1.5
Nc1ccc(C(=O)O)c(O)c1 ... 1.5
CCN1CCCC1CNC(=O)c1cc(S(N)(=O)=O)ccc1OC (centres undefined) [SULPIRIDE] ... 0.17

Q) I would be grateful if you could share the reported MONOCYTE for CCN(CC)CCNC(=O)c1cc(Cl)c(N)cc1OC [METOCLOPRAMIDE] .
A) 0.2

Q) // next record `NC(=O)CN1CCCC1=O`
A) 1.83

Q) // next record Cl.NC[C@H]1CC[C@H](C(=O)Oc2ccc(CCC(=O)O)cc2)CC1 [CETRAXATE HYDROCHLORIDE]
A) 2
